- Tested on: A498 renal
- Measurement Protocol: NCI tumour cell line growth inhibition, 48 h
Measured Property: TGI

| Compound | Measured Property | Endpoint Value |
| --- | --- | --- |
| O=C(O)C1Cc2[nH]c3ccccc3c2C2CCCC12 (stereo not given) | TGI | > 100 µM |
| CCn1c(=O)c2c3ccc(O)cc3[nH]c2c2ccc(O)cc21 | TGI | > 100 µM |
| COc1cc2c(cc1OC)-c1cc3cc(OC)c(OC)cc3c(C)[n+]1CC2 (tested in a mixture with another compound) | TGI | > 100 µM |
| NC1C2C=CC(C2)C1C(=O)O (stereo not given) | TGI | > 100 µM |
| COc1ccc2[nH]cc(C3(c4c[nH]c5ccc(OC)cc45)C(=O)Nc4ccc(Cl)cc43)c2c1 | TGI | 18.7 µM |
